assay: NOD1 signaling inhibitors, primary screen, cell-based, luminescence, uHTS (AID 1578); conditions: NOD1-driven NF-kB luciferase reporter cells, at 4 µM, hits give high values;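 note: HEK-293T reporter cells stimulated with the NOD1 agonist gamma-tri-DAP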
About 3,000 (1%) of roughly 290,000 compounds were called active. Only a selection was taken, and actives are over-represented in it overall.
A collection of molecules and their measured inhibition
Just the number in %, nothing appended.

Please review the entries below; each comes with its answer.
{"columns": ["molecule", "u", "inhibition"],
 "data": [
  ["O=C(COC(=O)Cc1ccc(Cl)cc1)Nc1c(F)cccc1F", "%", -44],
  ["COc1ccc(C(=O)Nc2sc3c(c2C(=O)O)CC(C)(C)OC3)cc1", "%", -23.2]
]}

Incoming: Please indicate inhibition recorded for N#Cc1c(-c2ccccc2)cc(-c2ccccc2)nc1SCc1nnc(-c2ccccc2)o1
Outgoing: 12.9

Incoming: Please indicate inhibition recorded for Cc1ccc2ncnc(Nc3cccc([N+](=O)[O-])c3)c2c1
Outgoing: 13.8

Incoming: Please indicate inhibition recorded for CC(C)Cc1ccc(C(C)C(=N)N)cc1 (stereo unspecified)
Outgoing: 43

Incoming: Please indicate inhibition recorded for CCCCCCC1CC(=O)NC(=O)N1 (stereo unspecified)
Outgoing: 45.3

Incoming: Please indicate inhibition recorded for O=C(Nc1ccccn1)c1ccc(Br)c(S(=O)(=O)N2CCCC2)c1
Outgoing: -39

Incoming: Please indicate inhibition recorded for CCc1ccc2[nH]c(=O)c(CN(CCCN3CCOCC3)C(=O)Nc3ccc(Cl)cc3)cc2c1
Outgoing: -9.8

Incoming: Please indicate inhibition recorded for COc1ccc(S(=O)(=O)Nc2nc3ccccc3nc2Nc2ccc3c(c2)OCO3)cc1
Outgoing: 7

Incoming: Please indicate inhibition recorded for CC(=O)c1ccc(OCC(=O)NC(=O)NC2CCCCC2)cc1
Outgoing: 6.2

Incoming: Please indicate inhibition recorded for Cc1nnsc1NC(=O)OCc1ccc(C(C)(C)C)cc1
Outgoing: 58.9

Incoming: Please indicate inhibition recorded for CC(=O)N(C)c1cccc(-c2ccc3nnc(C)n3n2)c1
Outgoing: -5.9

Incoming: Please indicate inhibition recorded for N#Cc1c(C(F)(F)F)cc(-c2ccc(F)cc2)[nH]c1=O
Outgoing: -17.2

Incoming: Please indicate inhibition recorded for Cc1ccc2nc(N3CCN(S(=O)(=O)c4ccc(C)c(Cl)c4)CC3)c(C#N)cc2c1
Outgoing: -0.6

###

A collection of molecules and their measured inhibition
assay: NOD1 signaling inhibitors, primary screen, cell-based, luminescence, uHTS (AID 1578); conditions: NOD1-driven NF-kB luciferase reporter cells, at 4 µM, hits give high values;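 note: HEK-293T reporter cells stimulated with the NOD1 agonist gamma-tri-DAP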
In all, about 290,000 compounds went through this assay and about 3,000 (1%) were called active. What follows is part of a selection rich in actives, with near analogues and random picks from the rest.
Just the number in %, nothing appended.

Please review the entries below; each comes with its answer.
{"columns": ["molecule", "observable", "measured number"],
 "data": [
  ["O=C(Nc1cccc([N+](=O)[O-])c1)c1cc2ccccc2cc1O", "inhibition", 17.3],
  ["O=C(Nc1ccc(O)cc1)c1cc2ccccc2c(=O)s1", "inhibition", -2.1],
  ["Cc1c(CC(=O)NCCCC(=O)O)c(=O)oc2cc3occ(-c4ccccc4)c3cc12", "inhibition", -6.5],
  ["O=C(N/N=C/c1ccc(OCC(=O)N2CCOCC2)cc1)c1ccccc1Cl", "inhibition", -15.5],
  ["O=C(Nc1ccc([N+](=O)[O-])cn1)c1ccc2c(c1)OCO2", "inhibition", -49.4]
]}

Incoming: Please indicate inhibition recorded for CC(=O)c1cccc(NC(=O)Cn2cnc(S(=O)(=O)N3CCOCC3)c2)c1
Outgoing: -18.3

Incoming: Please indicate inhibition recorded for C=C1CC2C=C(NC(C)=O)CC(C1)C2 (centres undefined)
Outgoing: -6.6

Incoming: Please indicate inhibition recorded for Cc1nnc(NC(=O)c2c(-c3ccccc3)noc2C)s1
Outgoing: -0.4

Incoming: Please indicate inhibition recorded for O=C(Nc1ccccc1)c1cc2ccc3ccccc3c2s1
Outgoing: -10.5

Incoming: Please indicate inhibition recorded for CN(C)/C=C1\N=C(c2cccnc2Oc2ccc(Cl)cc2)OC1=O
Outgoing: -11.9

Incoming: Please indicate inhibition recorded for CCOC(=O)N1CCN(S(=O)(=O)N2CCCC(C(=O)NCc3ccc(F)cc3)C2)CC1 (centres undefined)
Outgoing: 3.3

Incoming: Please indicate inhibition recorded for O=C1NC(=S)S/C1=C/c1ccc(N2CCOCC2)o1
Outgoing: 27.5

Incoming: Please indicate inhibition recorded for COCCC(=O)N1CCC(Oc2ccc(C(=O)N3C[C@H]4CC[C@H]3C4)cc2)CC1
Outgoing: -33

Incoming: Please indicate inhibition recorded for CC(C)c1nnc(NC(=O)c2ccc3c(c2)OCO3)s1
Outgoing: 62.9

Incoming: Please indicate inhibition recorded for COc1ccccc1C(=O)NC1CC2CCC(C1)N2Cc1ccccc1 (centres undefined)
Outgoing: -9.7

Incoming: Please indicate inhibition recorded for O=C(Nc1ccccn1)c1ccc2ccccc2c1O
Outgoing: -61.1

Incoming: Please indicate inhibition recorded for COCCn1c(C)cc(C2=NNC(=Nc3ccccc3F)SC2)c1C
Outgoing: 65.1

Incoming: Please indicate inhibition recorded for C/C(CCc1ccc2c(c1)OCO2)=N\N=C1\NC(=O)CC(C(=O)Nc2ccc(Cl)cc2)S1 (centres undefined)
Outgoing: 3.3

Incoming: Please indicate inhibition recorded for CC1(C)CC(=O)C(C(c2ccccc2F)C2C(=O)CC(C)(C)CC2=O)C(=O)C1
Outgoing: 0.7

Incoming: Please indicate inhibition recorded for COc1ccc2nc(N3CCCCC3)c(C#N)cc2c1
Outgoing: -123

Incoming: Please indicate inhibition recorded for O=C(Nc1ncc([N+](=O)[O-])s1)c1cccc([N+](=O)[O-])c1
Outgoing: 10.4

Incoming: Please indicate inhibition recorded for C=C1CCC[C@]2(C)C[C@H]3OC(=O)C(CN4CCCCC4CO)[C@H]3CC12 (some centres undefined)
Outgoing: 80.3

Incoming: Please indicate inhibition recorded for O=C(Nc1ccccc1)c1cc2ccccc2c(=O)s1
Outgoing: 63.7

Incoming: Please indicate inhibition recorded for CC(C)NC(=O)CN(Cc1ccc2c(c1)OCO2)C(=O)CCC(=O)Nc1ccccn1
Outgoing: -22.2

Incoming: Please indicate inhibition recorded for CCCN1CCN(C(=O)c2oc3c(Cl)cccc3c2C)CC1
Outgoing: 11.7

Incoming: Please indicate inhibition recorded for COc1ccc2cc(/C=C3\SC(=S)NC3=O)c(N3CCOCC3)nc2c1
Outgoing: 71.4

Incoming: Please indicate inhibition recorded for O=C(O)c1ccccc1C(=O)Nc1cccc([N+](=O)[O-])c1
Outgoing: -0.9

###

test: NOD1 signaling inhibitors, primary screen, cell-based, luminescence, uHTS (AID 1578); conditions: NOD1-driven NF-kB luciferase reporter cells, at 4 µM;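 note: HEK-293T reporter cells stimulated with the NOD1 agonist gamma-tri-DAP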
In all, about 290,000 compounds went through this assay and about 3,000 (1%) were called active. Rule as the data show it: active = inhibition mostly above about 36% (no sharp cut-off); inactive = mostly below about 34%. Shown is part of a subset that was picked to be rich in actives.
API: response.call in active, inactive

Observe how each entry below is paired with its result.
{"columns": ["molecule", "classification"],
 "data": [
  ["NC(=O)C1CCN(C(=O)c2ccc3c(c2)S(=O)(=O)c2ccccc2C3=O)CC1", "inactive"],
  ["CN(Cc1cccs1)c1nc(-c2cccnc2)nc2ccccc12", "inactive"],
  ["CCOc1ccc(CN(C)c2nc(-c3cccnc3)nc3ccccc23)cc1OC", "active"],
  ["CCOC(=O)c1nnn2c1nc(N1CCOCC1)c1ccccc12", "inactive"],
  ["CN(c1ncnc(N)c1[N+](=O)[O-])C1CCCCC1", "active"],
  ["O=C1/C(=C/c2cccs2)COc2ccccc21", "inactive"],
  ["Cc1ccc(C)c(C(=O)CN2C(=O)c3ccccc3S2(=O)=O)c1", "inactive"],
  ["CN(Cc1ccccc1)c1ncnc(N)c1[N+](=O)[O-]", "inactive"],
  ["COc1ccc(-c2noc(N3CCC(C(=O)NCc4ccccc4Cl)CC3)n2)cc1", "inactive"],
  ["COc1ccc(NC(=O)c2cc(-c3cc(Cl)ccc3O)n[nH]2)c(OC)c1", "inactive"]
]}

Incoming: Status in this test for CCCOc1ccc(N2C(=O)CC(N(CCc3ccc(OC)c(OC)c3)C(=S)Nc3ccccc3)C2=O)cc1 (centres undefined) ?
Outgoing: inactive

Incoming: Status in this test for CCOC(=O)c1[nH]ncc1CN1CCCC(C(=O)c2cc(Cl)ccc2OC)C1 (centres undefined) ?
Outgoing: inactive

Incoming: Status in this test for CCOc1ccc(NC(=O)CCSc2nnc(C)s2)cc1 ?
Outgoing: inactive

###

test: NOD1 signaling inhibitors, primary screen, cell-based, luminescence, uHTS (AID 1578); settings: NOD1-driven NF-kB luciferase reporter cells, at 4 µM, hits give high values;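 note: HEK-293T reporter cells stimulated with the NOD1 agonist gamma-tri-DAP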
Among all 290,000 compounds or so, about 3,000 (1%) were called active. The sample holds actives, similar compounds and a random draw of the others, so the mix is not that of the screen.
A collection of compounds and their measured inhibition
Just the number in %, nothing appended.

Please review the entries below; each comes with its answer.
{"columns": ["compound", "u", "measured number"],
 "data": [
  ["CCN1C(=O)N(S(=O)(=O)C(F)(F)F)[C@@H](c2ccccc2)C(C(=O)OC)=C1C", "%", 0.6],
  ["COc1cc(-c2c(-c3cc(OC)c(OC)c(OC)c3)noc2C)ccc1F", "%", -21.2],
  ["COC(=O)CN1C(=S)N(Cc2ccccc2)C(=O)C1CC(=O)Nc1ccc(Br)cc1 (stereo not given)", "%", 28.8],
  ["COc1ccccc1Nc1nc(-c2c(C)nc3ncccn23)cs1", "%", 61.6],
  ["O=C1CCc2cc(S(=O)(=O)NC(Cc3ccccc3)C(=O)NC3CCCC3)ccc2N1 (stereo not given)", "%", -11.4],
  ["Cc1cc(C)nc(NC2=NCC(=O)N2CCc2c[nH]c3ccccc23)n1", "%", -8.6]
]}

Incoming: Please indicate inhibition recorded for COc1ccc(Nc2nc(-c3c(C)nc4ncccn34)cs2)cc1
Outgoing: 17.6

Incoming: Please indicate inhibition recorded for Cc1cc(C(=O)CSc2nnc(NCc3ccccc3)s2)c(C)n1C
Outgoing: -18.8

Incoming: Please indicate inhibition recorded for CCn1c(SC)nnc1-c1nnc(SC)n1CC
Outgoing: -5.7

Incoming: Please indicate inhibition recorded for Cc1ccc(CNC(=O)C2CCCN(S(=O)(=O)c3c(C)[nH]c(=O)[nH]c3=O)C2)cc1 (stereo not given)
Outgoing: -3.9
